Collected Efficacy values appear next to each entry.
molecular target: Cannabinoid receptor 2 (Homo sapiens, UniProt P34972); assay: Efficacy at human recombinant CB2 receptor expressed in Saccharomyces cerevisiae cells relative to HU210; type: cell-based
Sequence (P34972 whole entry): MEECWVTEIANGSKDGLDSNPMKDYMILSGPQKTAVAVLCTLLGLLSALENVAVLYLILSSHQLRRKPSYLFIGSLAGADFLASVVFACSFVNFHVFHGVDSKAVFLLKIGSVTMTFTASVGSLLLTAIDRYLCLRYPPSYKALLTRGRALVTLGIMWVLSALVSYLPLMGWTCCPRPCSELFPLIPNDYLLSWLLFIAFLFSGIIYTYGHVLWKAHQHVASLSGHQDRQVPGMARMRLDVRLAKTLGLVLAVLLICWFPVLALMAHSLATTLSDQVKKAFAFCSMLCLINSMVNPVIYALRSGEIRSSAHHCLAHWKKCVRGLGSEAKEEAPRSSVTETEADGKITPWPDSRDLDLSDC
Numbers only; they are read as %.

In the examples that follow, each entry is paired with its recorded Efficacy.
{"compound-structure": "COc1ccccc1CNC(=O)c1cnc(Nc2cccc(Cl)c2)nc1C(F)(F)F", "unit-symbol": "%", "readout-value": 78}
{"compound-structure": "O=C(NCC1CCOCC1)c1cnc(Nc2ccc(Cl)cc2F)nc1C(F)(F)F", "unit-symbol": "%", "readout-value": 80}
{"compound-structure": "O=C(NCC1CCOCC1)c1cnc(Nc2cc(Cl)ccc2F)nc1C(F)(F)F", "unit-symbol": "%", "readout-value": 86}
{"compound-structure": "O=C(NCC1CCOCC1)c1cnc(Nc2cccc(Cl)c2F)nc1C(F)(F)F", "unit-symbol": "%", "readout-value": 90}
{"compound-structure": "O=C(NCc1cccc(Cl)c1)c1cnc(Nc2cccc(Cl)c2)nc1C(F)(F)F", "unit-symbol": "%", "readout-value": 18}

Q: Identify the reported Efficacy for the following entry. O=C(NCC1CCNCC1)c1cnc(Nc2cccc(Cl)c2)nc1C(F)(F)F
A: 46

Q: Assign Efficacy to the following record: O=C(NCC1CCCC1)c1cnc(Nc2cccc(Cl)c2)nc1C(F)(F)F
A: 83

Q: Give the measured Efficacy for N#Cc1cccc(Nc2ncc(C(=O)NCc3ccccc3)c(C(F)(F)F)n2)c1
A: 76

Q: Tell me Efficacy reported for O=C(NCC1CCOCC1)c1cnc(Nc2cccc(F)c2F)nc1C(F)(F)F
A: 90

Q: // fetch Efficacy given entry O=C(NCC1CCOCC1)c1cnc(Nc2cccc(Cl)c2)nc1C(F)(F)F
A: 89

Q: Retrieve Efficacy measured for O=C(NCc1ccccc1)c1cnc(Nc2ccccc2Cl)nc1C(F)(F)F and print it.
A: 48

Q: State its Efficacy: O=C(NCC1CCOCC1)c1cnc(Nc2c(Cl)cccc2Cl)nc1C(F)(F)F
A: 86

Q: Give the reported value of Efficacy for this record: O=C(NCc1ccccc1)c1cnc(Nc2ccc(Cl)cc2)nc1C(F)(F)F
A: 49

###

A set of compounds tested on Cytochrome P450 2C19 (Homo sapiens), with measured IC50:

Here's what some known entries look like.
{"compound": "O=C(NCC1CCOCC1)c1cnc(Nc2ccc(Cl)c(Cl)c2)nc1C(F)(F)F", "readout-value": "> 25 µM"}
{"compound": "O=C(NCC1CCOCC1)c1cnc(Nc2cc(Cl)ccc2F)nc1C(F)(F)F", "readout-value": "> 100 µM"}
{"compound": "O=C(NCC1CCOCC1)c1cnc(Nc2ccc(Cl)cc2Cl)nc1C(F)(F)F [GW842166X]", "readout-value": "> 100 µM"}

Moving on to the next compound.
Q: # return recorded IC50 for entry O=C(NCC1CCOCC1)c1cnc(Nc2ccc(Cl)cc2F)nc1C(F)(F)F
A: > 100 µM

###

Quick record of pIC50 values for Cytochrome P450 2D6 (Homo sapiens, UniProt P10635).
pIC50: −log10 of the molar value.

{"compound": "O=C(NCC1CCCCC1)c1cnc(Nc2cccc(Cl)c2)nc1C(F)(F)F", "study-target": "Cytochrome P450 2D6 (Homo sapiens, UniProt P10635)", "pIC50": "< 4.00"}
{"compound": "O=C(NCC1CCOCC1)c1cnc(Nc2ccc(Cl)cc2Cl)nc1C(F)(F)F [GW842166X]", "study-target": "Cytochrome P450 2D6 (Homo sapiens, UniProt P10635)", "pIC50": "< 4.00"}
{"compound": "O=C(NCC1CCCC1)c1cnc(Nc2cccc(Cl)c2)nc1C(F)(F)F", "study-target": "Cytochrome P450 2D6 (Homo sapiens, UniProt P10635)", "pIC50": "< 4.00"}
{"compound": "O=C(NCC1CCOCC1)c1cnc(Nc2cc(Cl)ccc2F)nc1C(F)(F)F", "study-target": "Cytochrome P450 2D6 (Homo sapiens, UniProt P10635)", "pIC50": "< 4.00"}

Q: Look up and report measured pIC50 (Cytochrome P450 2D6 (Homo sapiens, UniProt P10635)) for the following compound: O=C(NCC1CCOCC1)c1cnc(Nc2ccc(Cl)c(Cl)c2)nc1C(F)(F)F
A: < 4.60

Q: Provide the reported pIC50 (system: Cytochrome P450 2D6 (Homo sapiens, UniProt P10635)) for O=C(NCC1CCOCC1)c1cnc(Nc2ccc(Cl)cc2F)nc1C(F)(F)F
Sequence (P10635 whole entry): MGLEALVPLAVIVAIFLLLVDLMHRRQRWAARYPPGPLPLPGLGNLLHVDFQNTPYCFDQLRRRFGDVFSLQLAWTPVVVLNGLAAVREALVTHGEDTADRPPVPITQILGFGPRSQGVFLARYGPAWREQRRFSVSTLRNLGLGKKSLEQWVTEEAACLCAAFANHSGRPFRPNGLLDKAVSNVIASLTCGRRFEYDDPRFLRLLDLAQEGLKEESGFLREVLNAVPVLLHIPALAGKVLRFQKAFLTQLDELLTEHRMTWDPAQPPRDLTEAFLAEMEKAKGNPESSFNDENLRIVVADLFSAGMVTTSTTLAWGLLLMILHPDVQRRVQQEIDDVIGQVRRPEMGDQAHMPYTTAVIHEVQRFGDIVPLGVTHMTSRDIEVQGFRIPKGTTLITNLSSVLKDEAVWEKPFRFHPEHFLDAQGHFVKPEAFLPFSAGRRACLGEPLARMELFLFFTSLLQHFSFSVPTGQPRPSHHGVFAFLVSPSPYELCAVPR
A: < 4.00
